As shown below, each of these compounds has a reported pEC50 value.
Assay: Modulation of gamma-secretase
Entry type: numeric. Quantity: pEC50, the -log10 of concentration in molar units.

>>> quantitative_result("O=C(O)C1(c2ccc(-c3ccc(Cl)c(Cl)c3)c(F)c2)CC1")
4.40

Moving on to another compound below.
Q: Quickly give me recorded pEC50 for `C[C@@H](C(=O)O)c1ccc(-c2ccccc2)c(F)c1`
A: 3.52

====

Experiment: AUC (0 to 24 hrs) in rat at 1 mg/kg, iv
Assay type: ADME, organism-based
Design: time < 24 hr, dose 1 mg/kg, route intravenous
Settings: plasma
Readout Type: AUC(0-t) at 24 h (ng·h/mL)
# number only, unit ng·h/mL dropped from output

Q: Quickly give me recorded AUC(0-t) at 24 h for `CC1CCN([C@H](c2ccc(F)cc2)c2ccc([C@@H](C)C(=O)O)cc2-c2ccc(C(F)(F)F)cc2)CC1.Cl`
A: 10400
